These data points were gathered from ChEMBL document CHEMBL4373740.

# Target Desc: Hepatocyte growth factor receptor (Homo sapiens)
# Assay Procedure: Inhibition of purified recombinant MET kinase domain (unknown origin) using biotin as substrate preincubated for 5 mins followed by substrate addition and measured after 30 to 60 mins in presence of ATP by HTRF assay
pIC50: −log10 of the molar value.
Lab note: anything with pIC50 at or over 8 counts as label 1; the rest go in label 0.

# bool: pIC50 of "CCC(=O)Nc1cc(Oc2ccc(Nc3nccc4[nH]cc(-c5ccc(F)cc5)c(=O)c34)cc2F)ccn1" >= 8
label 1

How about "CC(C)(O)C(=O)Nc1cc(Oc2ccc(Nc3nccc4[nH]cc(-c5ccc(F)cc5)c(=O)c34)cc2F)ccn1" ?
label 0

How about "CC(C)(O)Cn1cc(-c2ccc(F)cc2)c(=O)c2c(Nc3ccc(Oc4ccnc(NC(=O)C5CC5)c4)c(F)c3)nccc21" ?
label 0

How about "O=C(Nc1cc(Oc2ccc(Nc3nccc4c3c(=O)c(-c3ccc(F)cc3)cn4CCO)cc2F)ccn1)C1CC1" ?
label 0

How about "CC(C)C(=O)Nc1cc(Oc2ccc(Nc3nccc4[nH]cc(-c5ccc(F)cc5)c(=O)c34)cc2F)ccn1" ?
label 0

How about "O=C(Nc1cc(Oc2ccc(Nc3nccc4[nH]cc(-c5ccc(F)cc5)c(=O)c34)cc2F)ccn1)C1CCC1" ?
label 0

----------
# Species on record: Homo sapiens
# Assay Procedure: Selectivity index, ratio of IC50 for purified recombinant VEGFR2 kinase domain (unknown origin) to IC50 for purified recombinant MET kinase domain (unknown origin)
Readout Label: Ratio IC50

# get_value(readout='Ratio IC50', item= "CC(C)(C)C(=O)Nc1cc(Oc2ccc(Nc3nccc4[nH]cc(-c5ccc(F)cc5)c(=O)c34)cc2F)ccn1" )
> 107

How about "CC(C)(O)C(=O)Nc1cc(Oc2ccc(Nc3nccc4[nH]cc(-c5ccc(F)cc5)c(=O)c34)cc2F)ccn1" ?
> 85.7

How about "O=C(Nc1cc(Oc2ccc(Nc3nccc4[nH]cc(-c5ccc(F)cc5)c(=O)c34)cc2F)ccn1)C1CCCCC1" ?
> 306

----------
# Target Desc: Hepatocyte growth factor receptor (Homo sapiens, UniProt P08581)
# Sequence (P08581 whole entry, the tested form may be a part): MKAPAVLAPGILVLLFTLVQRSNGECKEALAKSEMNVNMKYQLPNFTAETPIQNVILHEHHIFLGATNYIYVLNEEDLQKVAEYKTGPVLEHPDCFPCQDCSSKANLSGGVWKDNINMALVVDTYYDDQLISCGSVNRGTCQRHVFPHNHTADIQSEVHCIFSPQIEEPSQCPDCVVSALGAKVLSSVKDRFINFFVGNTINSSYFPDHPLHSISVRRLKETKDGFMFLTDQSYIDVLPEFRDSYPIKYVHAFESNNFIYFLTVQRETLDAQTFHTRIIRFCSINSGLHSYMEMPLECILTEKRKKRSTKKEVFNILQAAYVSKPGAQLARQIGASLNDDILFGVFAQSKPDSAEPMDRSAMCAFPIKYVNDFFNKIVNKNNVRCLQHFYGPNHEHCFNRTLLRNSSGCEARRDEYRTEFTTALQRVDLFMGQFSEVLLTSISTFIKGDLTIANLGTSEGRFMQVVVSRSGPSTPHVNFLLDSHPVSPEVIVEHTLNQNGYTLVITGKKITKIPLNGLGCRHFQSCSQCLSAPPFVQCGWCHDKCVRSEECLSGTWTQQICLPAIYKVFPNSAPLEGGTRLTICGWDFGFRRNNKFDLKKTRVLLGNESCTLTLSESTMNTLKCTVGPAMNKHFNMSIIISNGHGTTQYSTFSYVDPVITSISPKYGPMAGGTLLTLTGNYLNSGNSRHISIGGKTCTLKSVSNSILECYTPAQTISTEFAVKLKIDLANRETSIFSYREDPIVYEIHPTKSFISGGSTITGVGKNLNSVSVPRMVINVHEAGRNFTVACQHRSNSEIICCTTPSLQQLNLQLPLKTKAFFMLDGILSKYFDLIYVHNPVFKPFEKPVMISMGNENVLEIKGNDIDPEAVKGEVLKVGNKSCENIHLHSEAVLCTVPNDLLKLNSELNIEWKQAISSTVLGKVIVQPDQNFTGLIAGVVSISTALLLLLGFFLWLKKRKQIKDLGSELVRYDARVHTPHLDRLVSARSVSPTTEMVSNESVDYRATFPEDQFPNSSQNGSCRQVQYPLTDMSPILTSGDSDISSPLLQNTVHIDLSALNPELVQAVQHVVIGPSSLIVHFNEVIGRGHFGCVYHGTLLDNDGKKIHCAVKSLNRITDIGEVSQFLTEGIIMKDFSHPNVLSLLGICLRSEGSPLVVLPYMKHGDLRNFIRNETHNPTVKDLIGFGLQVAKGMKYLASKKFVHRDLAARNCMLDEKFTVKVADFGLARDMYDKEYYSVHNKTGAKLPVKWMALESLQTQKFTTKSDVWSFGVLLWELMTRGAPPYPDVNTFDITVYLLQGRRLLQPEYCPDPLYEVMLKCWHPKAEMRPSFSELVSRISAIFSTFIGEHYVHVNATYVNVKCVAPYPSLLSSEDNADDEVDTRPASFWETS
# Assay Procedure: Inhibition of purified recombinant MET kinase domain (unknown origin) using biotin as substrate preincubated for 5 mins followed by substrate addition and measured after 30 to 60 mins in presence of ATP by HTRF assay
Readout Label: IC50 (nM)
Expressed in nM, but write only the number.

# get_value(readout='IC50', item= "CCCC(=O)Nc1cc(Oc2ccc(Nc3nccc4[nH]cc(-c5ccc(F)cc5)c(=O)c34)cc2F)ccn1" )
14.8

How about "Nc1nccc(Oc2ccc(Nc3nccc4[nH]cc(-c5ccc(F)cc5)c(=O)c34)cc2F)c1Cl" ?
9.8

How about "O=C(Nc1cc(Oc2ccc(Nc3nccc4[nH]cc(-c5ccc(F)cc5)c(=O)c34)cc2F)ccn1)C1CCCCC1" ?
9.8

How about "CCn1cc(-c2ccc(F)cc2)c(=O)c2c(Nc3ccc(Oc4ccnc(NC(=O)C5CC5)c4)c(F)c3)nccc21" ?
15.6
